# testedOn: PCSK9 (UniProt Q8NBP7 31-692)
# Sequence (Q8NBP7 31-692): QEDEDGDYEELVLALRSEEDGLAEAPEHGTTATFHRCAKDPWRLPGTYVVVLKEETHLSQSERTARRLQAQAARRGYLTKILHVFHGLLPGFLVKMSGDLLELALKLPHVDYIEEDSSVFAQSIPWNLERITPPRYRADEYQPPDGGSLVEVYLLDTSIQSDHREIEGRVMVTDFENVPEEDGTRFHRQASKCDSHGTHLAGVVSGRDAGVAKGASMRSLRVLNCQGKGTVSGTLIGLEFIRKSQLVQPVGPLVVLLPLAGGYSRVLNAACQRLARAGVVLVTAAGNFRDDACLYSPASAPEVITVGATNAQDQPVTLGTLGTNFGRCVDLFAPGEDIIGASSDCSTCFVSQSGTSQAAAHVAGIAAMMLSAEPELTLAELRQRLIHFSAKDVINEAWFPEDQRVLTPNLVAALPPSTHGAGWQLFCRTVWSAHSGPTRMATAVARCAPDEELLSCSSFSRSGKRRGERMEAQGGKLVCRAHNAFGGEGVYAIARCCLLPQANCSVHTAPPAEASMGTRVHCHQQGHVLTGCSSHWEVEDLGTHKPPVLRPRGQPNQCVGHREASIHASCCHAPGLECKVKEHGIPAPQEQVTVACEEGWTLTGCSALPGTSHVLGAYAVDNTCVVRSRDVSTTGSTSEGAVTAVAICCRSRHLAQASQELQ
# protocolDetails: bead retention
parameterMeasured: binding result

binder	measuredValue
PCSK9A4-DNA (ssDNA, no side-chains) DNA: CGAATCAGATTGGACCAGCCCCAATGCTTTTCGTTTCTATCACGTCTTTAGCGGTACCTATTCGAGTCCAGATGTAGGTAG	no binding
PCSK9A5-DNA (ssDNA, no side-chains) DNA: CGAATCAGATTGGACCAGCCACGTTACTGATTCTTCTACCGTTTTTGCCCCCGGCACCTTCTGGAGTCCAGATGTAGGTAG	no binding
PCSK9A1-DNA (ssDNA, no side-chains) DNA: CGAATCAGATTGGACCAGCCACTATATTCTCTCTCCTACCGTTTGCCTTTGCATCACCTTCTGGAGTCCAGATGTAGGTAG	no binding

Hello, the source for this data is paper PMC5866196, in case you need it.
